Biological target: T1, PARD3B_1, Q8TEW8
T1 sequence (Q8TEW8 196-299, limits assumed, looked up): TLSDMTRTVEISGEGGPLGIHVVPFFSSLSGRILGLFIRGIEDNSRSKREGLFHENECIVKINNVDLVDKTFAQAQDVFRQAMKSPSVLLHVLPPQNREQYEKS
Assay: holdup assay
Set-up: key: below the threshold = too weak to quantify, mostly under pKd 3.1 to 4
Settings: plain residues with an end cap or a label only (N-terminal biotin on a linker: ado-ado)

Binder	pKd
KKMPSIESDV [GRIN2A, Q12879]	below the threshold
PPYRHRNTVV [ERBB4, Q15303]	below the threshold
PLSPEQPTKL [TRIM50, Q86XT4]	4.06
SKENVQETQI [LRRC4B, Q9NT99]	below the threshold
VRNLPESEEL [MYOZ3, Q8TDC0]	3.58
GQEEQVTTRL [TRPC5, Q9UL62]	4.5
RKPKPSSSCC [RAB9A, P51151]	below the threshold
SGSLKLMTTV [DACT1, Q9NYF0]	below the threshold
SKSNFGSEPL [KIF17, Q9P2E2]	3.65
VNKSKLLTDV [KCNA1, Q09470]	below the threshold
HLRARKSEWV [GJD4, Q96KN9]	below the threshold
QGPVETESVV [SLC45A4, Q5BKX6]	below the threshold
LGRSTPQSEV [DGKH, Q86XP1]	below the threshold
YLEPVLSSEL [ATP2A2, P16615;P16615-3]	4.04
KKAPTNEFYA [SDC4, P31431]	4.52
CLREWCDAFL [BANF1, O75531]	5.18
SARSRLSSNL [HCN2, Q9UL51]	3.71
FNSYSLTGYV [CLDN2, P57739]	4.42
QPCFNKLFPL [LPXN, O60711]	3.75
VYPNAKVELV [PDLIM4_iso2, P50479]	3.6
PKRSFIESNV [TANC1, Q9C0D5]	below the threshold
QGLAERISVL [PRKD2, Q9BZL6]	4.47
LSEFKAMDSI [CTNNA1, P35221]	below the threshold
NHSSSPETTA [TRMT13, Q9NUP7]	below the threshold
TLPRKRMSSI [GPRC6A, Q5T6X5]	below the threshold
KSGKQTMLVV [TRIM29, Q14134;Q14134-2]	below the threshold
QKNRKAQEDL [CES3, Q6UWW8]	below the threshold
EVEEFPETSV [TRPV3, Q8NET8]	below the threshold
QMNQTLPVQV [EPHB3, P54753]	3.78
YYKRPVQEWV [MMP24, Q9Y5R2]	below the threshold
LPAHHNATRL [SLC34A1, Q06495;Q06495-1]	4.62
PAPSSGKDYV [CLDN1, O95832]	below the threshold

Origin of measurements: paper PMC9482650
